Data origin: patent EP0468497B1

Below are pKd values measured for bombesin receptor (Mus musculus).
pKd: −log10 of the molar value. Non-standard residues stand in square brackets, D forms with d. Residues, ends and D or L forms follow the SMILES beside them. *: point of attachment. Palmitoyl = CCCCCCCCCCCCCCCC(=O)*; Lauroyl = CCCCCCCCCCCC(=O)*; Octanoyl = CCCCCCCC(=O)*

Q. Please look at this compound and report its pKd: CCCCCCCC(=O)N[C@@H](CCC(N)=O)C(=O)N[C@@H](Cc1c[nH]c2ccccc12)C(=O)N[C@@H](C)C(=O)N[C@H](C(=O)N[C@H](C)C(=O)N[C@@H](Cc1c[nH]cn1)C(N)=O)C(C)C [Example 4] (Octanoyl-QWAV[dA]H-NH2)
A. ≥ 7.30

Q. Write down pKd measured for item CCCCCCCCCCCC(=O)N[C@@H](CCC(N)=O)C(=O)N[C@@H](Cc1c[nH]c2ccccc12)C(=O)N[C@@H](C)C(=O)N[C@H](C(=O)N[C@H](C)C(=O)N[C@@H](Cc1c[nH]cn1)C(=O)N[C@@H](CC(C)C)C(N)=O)C(C)C [Example 2] (Lauroyl-QWAV[dA]HL-NH2)
A. ≥ 6.30

Q. Consider the compound CCCCCCCCCCCCCCCC(=O)N[C@@H](CCC(N)=O)C(=O)N[C@@H](Cc1c[nH]c2ccccc12)C(=O)N[C@@H](C)C(=O)N[C@H](C(=O)N[C@H](C)C(=O)N[C@@H](Cc1c[nH]cn1)C(=O)N[C@@H](CC(C)C)C(N)=O)C(C)C [Example 3] (Palmitoyl-QWAV[dA]HL-NH2) . State its measured pKd.
A. ≥ 6.30

Q. Write down pKd measured for item CCCCCCCC(=O)N[C@@H](CCC(N)=O)C(=O)N[C@@H](Cc1c[nH]c2ccccc12)C(=O)N[C@@H](C)C(=O)N[C@H](C(=O)N[C@H](C)C(=O)N[C@@H](Cc1c[nH]cn1)C(=O)N[C@@H](CC(C)C)C(N)=O)C(C)C [Example 1] (Octanoyl-QWAV[dA]HL-NH2)
A. ≥ 7.30
